Examples of compounds with documented bioavailability follow.
assay: Oral bioavailability in CD-1 mouse at 25 mg/kg, po administered as single dose; assay type: ADME, organism-based; conditions: CD-1, mouse, in vivo
Answer with the figure and its unit, nothing else.

In [3]: df
Out[3]:
                                  structure  property_measured  result
0  Nc1ncnn2c1c(-c1ccc3ccc(-c4ccccc4)nc3c1F)nc2[C@H]1C[C@@H](N2CCN(C=O)CC2)C1    bioavailability     18%

Param item = CN1CCN([C@H]2C[C@@H](c3nc(-c4ccc5ccc(-c6ccccc6)nc5c4F)c4c(N)ncnn43)C2)CC1 ; retrieve measured bioavailability. 27%
